Tested on: Klebsiella pneumoniae
Conditions: Concentration 20 uM; ASSAY_TEST Inhibition of Bacterial Growth; detection method Absorption (OD600); MEDIA CAMHB; plate type 384well; NBS; CORNING #3640; time 18 hr
Description: Antibacterial activity against Klebsiella pneumoniae MDR ATCC 70063 (CO-ADD:GN_003); MIC in CAMBH media using NBS plates, by OD(600)
Measured potencies and affinities stand elsewhere.
endpoint.label: Inhibition (%)
Respond numerically; units are % and should not be typed.

compound: CC(=O)Nc1nc(C)c(CCCOc2ccc([N+](=O)[O-])cc2)c(O)n1
Inhibition (%): 2.35

Exercise: Need Inhibition of COc1ccc(OCC(O)CN2CCN(c3ccc(Cl)cc3)CC2)cc1 (stereo unspecified) , thanks.
Key: 5.97

Exercise: Fill in the blank: the reported Inhibition of COc1ccn(C2CCCCO2)c(=O)n1 (stereo unspecified) is ____.
Key: 6.04

Exercise: For the compound c1cc(-n2nnc3cnccc32)ccn1 , what Inhibition is on record?
Key: -0.91

Exercise: // returns reported Inhibition for input CCN(CC)CCN1c2ccccc2Sc2ccc3ccccc3c21
Key: 8.87

Exercise: I have this compound here, CCN1CCCCC(=N\O)/C(=N/O)CCCC1 , and I need its recorded Inhibition.
Key: 23.74
